- study system: human α7 nAChR stably expressed in a HEK cell line (with human RIC-3) (Homo sapiens, UniProt P36544)
- Construct: PrecisION hnAChR α7/RIC-3
- Sequence (P36544 23-502): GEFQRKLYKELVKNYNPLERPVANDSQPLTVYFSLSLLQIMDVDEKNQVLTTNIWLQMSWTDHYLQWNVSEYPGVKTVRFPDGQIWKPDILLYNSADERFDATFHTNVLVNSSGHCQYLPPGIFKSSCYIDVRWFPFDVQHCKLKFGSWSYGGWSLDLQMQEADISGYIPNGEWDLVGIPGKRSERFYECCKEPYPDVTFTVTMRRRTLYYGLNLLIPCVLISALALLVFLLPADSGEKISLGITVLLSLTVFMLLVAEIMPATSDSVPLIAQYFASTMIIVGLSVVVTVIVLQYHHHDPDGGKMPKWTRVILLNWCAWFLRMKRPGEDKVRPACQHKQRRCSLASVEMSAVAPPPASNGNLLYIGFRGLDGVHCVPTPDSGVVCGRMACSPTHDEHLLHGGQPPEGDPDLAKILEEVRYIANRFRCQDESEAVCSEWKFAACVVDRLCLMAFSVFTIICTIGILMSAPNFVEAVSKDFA
- measurement description: Automated patch-clamp electrophysiology functional assay (Assay A), IonFlux HT, whole-cell population patch
- Assay type: cell-based
- experimental conditions: automated patch-clamp electrophysiology functional assay (Assay A); potency class by EC50; read-out: α7 nAChR Potency
- Method: The α7 nAChR positive allosteric modulator (PAM) activity of the present compounds may be tested using assays known in the art. […] The compounds were assessed for their ability to modulate the function of the human α7 nAChR stably expressed in a HEK cell line both in the presence, and in the absence of the natural α7 agonist acetylcholine. By performing a series of such measurements at different concentrations, the effective concentration of the α7 nAChR PAMs (EC50) was determined. […]
List of EC50 values.

>  <compound>
NS(=O)(=O)c1ccc([C@@H]2C[C@H]2c2nsc(-c3cccc(F)c3)n2)cc1 [Example L10]

>  <EC50>
≤ 100 nM

$$$$
>  <compound>
CC1(C)[C@H](c2ccc(S(N)(=O)=O)cc2)[C@H]1c1noc(-c2ccccc2)n1 [Example L17]

>  <EC50>
100 to 500 nM

$$$$
>  <compound>
Cc1ncoc1-c1nc([C@H]2[C@H](c3ccc(S(N)(=O)=O)cc3)C2(C)C)no1 [Example I7]

>  <EC50>
500 to 5000 nM

$$$$
>  <compound>
CC1(C)[C@@H](c2ccc(S(N)(=O)=O)cc2)[C@@H]1c1nc(-c2ccc(C(F)(F)F)nc2)no1 [Example D29]

>  <EC50>
500 to 5000 nM

$$$$
>  <compound>
CC1(C)[C@@H](c2ccc(S(N)(=O)=O)cc2)[C@@H]1c1nnc(C2CCCC2)o1 [Example G10]

>  <EC50>
500 to 5000 nM

$$$$
>  <compound>
CC1(C)[C@H](c2ccc(S(N)(=O)=O)cc2)[C@H]1c1nc(C2CCC2)no1 [Example B3]

>  <EC50>
5000 to 50000 nM

$$$$
>  <compound>
CC1(C)[C@@H](c2ccc(S(N)(=O)=O)cc2)[C@@H]1c1noc(C2CC(O)C2)n1 (stereo partly shown) [Example I30]

>  <EC50>
500 to 5000 nM

$$$$
>  <compound>
COc1ccc(Cl)cc1-c1noc(C2C(c3ccc(S(N)(=O)=O)cc3)C2(F)F)n1 (stereo not shown) [Example E2]

>  <EC50>
500 to 5000 nM

$$$$
>  <compound>
CC1(C)[C@@H](c2ccc(S(N)(=O)=O)cc2)[C@@H]1c1noc(-c2ccncc2C(F)(F)F)n1 [Example I19]

>  <EC50>
100 to 500 nM

$$$$
>  <compound>
NS(=O)(=O)c1ccc(C2CC2c2nc(-c3cccc(F)c3)ns2)cc1 (single isomer, unassigned) [Example M4]

>  <EC50>
100 to 500 nM

$$$$
>  <compound>
CC1(C)[C@H](c2ccc(S(N)(=O)=O)cc2)[C@H]1c1nnc(-c2ccccc2)[nH]1 [Example F5]

>  <EC50>
500 to 5000 nM

$$$$
>  <compound>
NS(=O)(=O)c1ccc([C@@H]2C[C@H]2c2nc(-c3c(F)cccc3F)no2)cc1 [Example C9]

>  <EC50>
500 to 5000 nM

$$$$
>  <compound>
CC1(C)[C@@H](c2ccc(S(N)(=O)=O)cc2)[C@@H]1c1noc(C2(c3cc(F)ccc3F)CCC2)n1 [Example I4]

>  <EC50>
100 to 500 nM

$$$$
>  <compound>
NS(=O)(=O)c1ccc([C@@H]2C[C@H]2c2nc(-c3ccc(F)cc3F)no2)cc1 [Example C13]

>  <EC50>
100 to 500 nM

$$$$
>  <compound>
NS(=O)(=O)c1ccc([C@@H]2C[C@H]2c2nc(-c3ccc(F)cc3)no2)cc1 [Example C14]

>  <EC50>
≤ 100 nM

$$$$
>  <compound>
COc1ccc(Cl)cc1-c1noc([C@@H]2C[C@H]2c2ccc(S(N)(=O)=O)cc2)n1 [Example 19]

>  <EC50>
500 to 5000 nM

$$$$
>  <compound>
CC1(C)[C@H](c2ccc(S(N)(=O)=O)cc2)[C@H]1c1noc(-c2cccc(F)c2)n1 [Example L18]

>  <EC50>
100 to 500 nM

$$$$
>  <compound>
CC1(C)[C@H](c2ccc(S(N)(=O)=O)cc2)[C@H]1c1nc(C2CCCO2)no1 (stereo partly shown) [Example B12]

>  <EC50>
5000 to 50000 nM

$$$$
>  <compound>
NS(=O)(=O)c1ccc([C@@H]2C[C@H]2c2nc(C3CCCC3)co2)cc1 [Example K18]

>  <EC50>
100 to 500 nM

$$$$
>  <compound>
CC1(C)[C@@H](c2ccc(S(N)(=O)=O)cc2)[C@@H]1c1cn(-c2cccc(F)c2)nn1 [Example L6]

>  <EC50>
500 to 5000 nM

$$$$
>  <compound>
CC1(C)[C@@H](c2ccc(S(N)(=O)=O)cc2)[C@@H]1c1cnc(-c2ccccc2)o1 [Example L1]

>  <EC50>
500 to 5000 nM

$$$$
>  <compound>
CC1(C)[C@@H](c2ccc(S(N)(=O)=O)cc2)[C@@H]1c1cc(-c2ccccc2)no1 [Example L4]

>  <EC50>
500 to 5000 nM

$$$$
>  <compound>
CC1(C)[C@H](c2ccc(S(N)(=O)=O)cc2)[C@H]1c1nc(-c2ccc(F)cc2F)no1 [Example A7]

>  <EC50>
500 to 5000 nM

$$$$
>  <compound>
CC1(C)[C@@H](c2ccc(S(N)(=O)=O)cc2)[C@@H]1c1noc(C2(c3cnccn3)CC2)n1 [Example I12]

>  <EC50>
500 to 5000 nM

$$$$
>  <compound>
CC1(C)[C@@H](c2ccc(S(N)(=O)=O)cc2)[C@@H]1c1noc(C2CC2)n1 [Example I25]

>  <EC50>
500 to 5000 nM

$$$$
>  <compound>
CC1(C)[C@@H](c2ccc(S(N)(=O)=O)cc2)[C@@H]1c1noc(-c2cc3sccc3[nH]2)n1 [Example I22]

>  <EC50>
5000 to 50000 nM

$$$$
>  <compound>
CC1(C)[C@@H](c2ccc(S(N)(=O)=O)cc2)[C@@H]1c1noc(-c2cscn2)n1 [Example I6]

>  <EC50>
500 to 5000 nM

$$$$
>  <compound>
NS(=O)(=O)c1ccc([C@@H]2C[C@H]2c2cnc(-c3ccccc3)s2)cc1 [Example 27]

>  <EC50>
500 to 5000 nM

$$$$
>  <compound>
NS(=O)(=O)c1ccc([C@@H]2C[C@H]2c2ccn(Cc3cccc(F)c3)n2)cc1 [Example 23]

>  <EC50>
100 to 500 nM

$$$$
>  <compound>
CC1(C)[C@@H](c2ccc(S(N)(=O)=O)cc2)[C@@H]1c1noc(-c2cnc(SCC(F)(F)F)o2)n1 [Example I18]

>  <EC50>
500 to 5000 nM

$$$$
>  <compound>
CC1(C)[C@@H](c2ccc(S(N)(=O)=O)cc2)[C@@H]1c1nnc(-c2ccccc2)s1 [Example G7]

>  <EC50>
500 to 5000 nM

$$$$
